Tested on: Fibroblast
Test: Incucyte cell viability with human fibroblast; note: filed as whole numbers so only -1 and 0 and 1 occur
Type: toxicity, cell-based
Settings: 12 h, 10 µM, compound concentration 10 uM, replicate number 1, timepoint 12 hours
Please respond with reported Growth Rate for every item in the list.
Please state the value as a number alone, without comment.

(Q) Look up Growth Rate: O=C(Nc1nc2cccc(-c3ccc(CN4CCS(=O)(=O)CC4)cc3)n2n1)C1CC1
(A) 0

(Q) Look up Growth Rate: CCCS(=O)(=O)c1nc(NC2CC2)cc(-c2ccc3c(ccn3C3CC(C)(C)NC(C)(C)C3)c2)n1
(A) 0

(Q) Look up Growth Rate: CN(C)C(=O)C(CCN1CCC(O)(c2ccc(Cl)cc2)CC1)(c1ccccc1)c1ccccc1.Cl [LOPERAMIDE HYDROCHLORIDE]
(A) 0

(Q) Look up Growth Rate: O=C1NCN(c2ccccc2)C12CCN(CC1COc3ccccc3O1)CC2 (stereo unspecified)
(A) 1

(Q) Look up Growth Rate: COc1cc(N2CCC(N3CCN(C)CC3)CC2)ccc1Nc1ncc(Cl)c(Nc2ccccc2P(C)(C)=O)n1
(A) 0

(Q) Look up Growth Rate: Cn1nc(C(F)(F)F)cc1-c1cnc(N2CCc3cc(S(=O)(=O)Nc4c(F)cc(Cl)cc4F)cc(N4CCCC4=O)c32)nc1
(A) 0

(Q) Look up Growth Rate: COc1ccnc(N2CCC3(CCCN(Cc4c[nH]c5ccccc45)C3=O)CC2)n1
(A) 0

(Q) Look up Growth Rate: C=CC(=O)N1CCC([C@@H]2CCNc3c(C(N)=O)c(-c4ccc(Oc5ccccc5)cc4)nn32)CC1
(A) 0

(Q) Look up Growth Rate: CCN1CCN(c2ccc(Nc3cc(N(C)C(=O)Nc4c(Cl)c(OC)cc(OC)c4Cl)ncn3)cc2)CC1
(A) 1

(Q) Look up Growth Rate: CC(C)(Sc1ccc(CCN(CCCCC2CCCCC2)C(=O)NC2CCCCC2)cc1)C(=O)O
(A) 0

(Q) Look up Growth Rate: S=C(NCCCc1c[nH]cn1)NCCCN(Cc1ccc(Cl)c(Cl)c1)c1ccc(Br)cn1
(A) 0

(Q) Look up Growth Rate: CC[C@H](CO)Nc1nc(NCc2ccccc2)c2ncn(C(C)C)c2n1
(A) 0

(Q) Look up Growth Rate: NC(=O)c1cccc(-c2cc(Nc3ccc(OC(F)(F)F)cc3)ncn2)c1
(A) 0

(Q) Look up Growth Rate: COc1cc(-c2cn(C)c(=O)c3cnccc23)c(OC)cc1CN(C)C
(A) 0

(Q) Look up Growth Rate: Cc1cc(C)c(S(=O)(=O)N(Cc2ccc(-c3cccc(S(C)(=O)=O)c3)cc2)Cc2ccc(C(F)(F)F)o2)c(C)c1
(A) 0

(Q) Look up Growth Rate: CC(C)(C(=O)O)c1ccc(C(O)CCCN2CCC(C(O)(c3ccccc3)c3ccccc3)CC2)cc1.Cl (stereo unspecified) [FEXOFENADINE HYDROCHLORIDE]
(A) 0

(Q) Look up Growth Rate: CC(C)c1onc(-c2c(Cl)cccc2Cl)c1COc1ccc(/C=C/c2cccc(C(=O)O)c2)c(Cl)c1
(A) 1

(Q) Look up Growth Rate: Cc1c(NC(=O)c2cc(C(N)=O)nc3cc(F)ccc23)c(C(F)(F)F)nn1Cc1ccc(C#N)cc1
(A) 0

(Q) Look up Growth Rate: Cc1cc([C@@H](C)Nc2cccc(-c3cc(C)c(C(=O)N[C@@H](C)C(=O)O)c(C)c3)c2)ccc1Cl
(A) 1

(Q) Look up Growth Rate: COC(=N)c1nc2ccc3ncnc(Nc4ccc(OC)cc4F)c3c2s1
(A) 1

(Q) Look up Growth Rate: O=S(=O)(NC1CCC(c2cc(F)ccc2F)(S(=O)(=O)c2ccc(Cl)cc2)CC1)C(F)(F)F (stereo unspecified)
(A) 1

(Q) Look up Growth Rate: C[C@H]1Oc2cc(cnc2N)-c2c(nn(C)c2C#N)CN(C)C(=O)c2ccc(F)cc21
(A) 0

(Q) Look up Growth Rate: Cc1cnc(Nc2ccc(F)cc2Cl)nc1-c1c[nH]c(C(=O)N[C@H](CO)c2cccc(Cl)c2)c1
(A) 1

(Q) Look up Growth Rate: Cl.O=C([C@@H](Cc1cccc(C(F)(F)F)c1)NS(=O)(=O)c1cc(F)c2c(c1)CCNC2)N1CCCC1
(A) 1

(Q) Look up Growth Rate: O=C(NOCC1CC1)c1ccc(F)c(F)c1Nc1ccc(I)cc1Cl
(A) 1

(Q) Look up Growth Rate: Cl.O=c1c2cccn2c2ccccc2n1CCCN1CCC(c2ccc(Cl)cc2)CC1
(A) 0

(Q) Look up Growth Rate: CCc1cccc(CC)c1NC(=O)c1nn(C)c2c1CCc1cnc(Nc3ccc(C(=O)NC4CCN(C)CC4)cc3OC(F)(F)F)nc1-2
(A) 0

(Q) Look up Growth Rate: CC(C)NC(=O)c1ccc(C#Cc2ccncc2)cn1
(A) 0

(Q) Look up Growth Rate: Cc1ccc(C(=O)Nc2cccc(C(F)(F)F)c2)cc1Nc1nc(-c2cccnc2)nc2c1cnn2C
(A) 0

(Q) Look up Growth Rate: CC(C)C[C@H](CO)Nc1nc(S[C@@H](C)c2ccccc2)nc2nc(N)sc12
(A) 0

(Q) Look up Growth Rate: C[C@]12CCC(=O)C=C1CC[C@@H]1[C@@H]2[C@@H](O)C[C@]2(C=O)[C@@H](C(=O)CO)CC[C@@H]12
(A) 1

Entry source: ChEMBL document CHEMBL4689842
